TESTED_SYSTEM: Estrogen receptor (Homo sapiens)
MEASUREMENT_DESCRIPTION: qHTS assay to identify small molecule agonists of the estrogen receptor alpha (ER-alpha) signaling pathway using the BG1 cell line (AID 743079); note: nearly all actives have a fitted effect of over 20% in size
EXPERIMENTAL_CONDITIONS: BG1Luc4E2 cells, ERE-luciferase agonist, 22 h; series mostly up to 70.3 µM
Results filed as inconclusive are left out. Active and inactive are the calls of the source. Calls come from the whole dose curve; as a rule, active = well fitted activation curve with a large enough effect in the repeat runs; inconclusive = weak or mixed curves, or effect the other way; inactive = no such curve, though single readings can be large or run the other way.
MEASUREMENT_NAME: outcome

| COMPOUND | ASSAY_RESULT |
| --- | --- |
| CCCCC(CC)COC(=O)CCCCC(=O)OCC(CC)CCCC (stereo unspecified) | inactive |
| Fc1ccc(Br)cc1 | inactive |
| CCc1cccc(C)c1N | inactive |
| C/C=C1/CC2C=CC1C2 (stereo unspecified) | inactive |
| O=C(O)c1ccccc1C(c1ccc(O)cc1)c1ccc(O)cc1 | inactive |

Lab note: each compound below needs its outcome filled in.
1. CN(C)CCCN
2. O=S(=O)(O)c1ccc2ccccc2c1

Key:
["inactive", "inactive"]
